# experimentalTarget: HER2 A775_G776insYVMA (Homo sapiens (Human), UniProt P04626, INS775YVMA)
# Sequence (P04626 other isoform, or with tags, fused parts or gaps del 1-675/ins YVMA behind 775 limits assumed): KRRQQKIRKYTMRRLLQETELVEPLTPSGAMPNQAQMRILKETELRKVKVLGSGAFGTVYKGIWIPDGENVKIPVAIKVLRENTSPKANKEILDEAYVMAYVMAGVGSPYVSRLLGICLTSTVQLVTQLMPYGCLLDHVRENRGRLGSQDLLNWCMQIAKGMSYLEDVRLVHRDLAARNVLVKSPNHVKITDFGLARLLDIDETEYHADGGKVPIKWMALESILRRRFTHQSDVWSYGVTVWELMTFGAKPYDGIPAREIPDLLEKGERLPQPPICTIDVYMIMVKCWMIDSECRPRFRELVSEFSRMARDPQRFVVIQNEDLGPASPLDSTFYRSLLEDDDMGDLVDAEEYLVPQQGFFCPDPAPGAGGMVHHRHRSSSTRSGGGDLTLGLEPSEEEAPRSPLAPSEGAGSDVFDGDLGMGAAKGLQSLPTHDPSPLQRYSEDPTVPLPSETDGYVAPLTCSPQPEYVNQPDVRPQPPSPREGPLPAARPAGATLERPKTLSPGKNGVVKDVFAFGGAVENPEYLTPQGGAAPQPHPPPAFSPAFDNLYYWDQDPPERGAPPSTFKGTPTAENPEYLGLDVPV
# assayText: HTRF inhibitory activity against HER2 mutant enzyme
# testConditions: recombinant enzyme, 37° C. for 2 hours
valueType: IC50 (nM)

Consider the worked cases shown below.
- smilesRepresentation: "COc1cc(N2CCOCC2)c(NC(=O)/C=C/CN(C)C)cc1Nc1ncc(Cl)c(Nc2ccccc2NS(C)(=O)=O)n1"
  valueType: "IC50"
  observedResult: 80
- smilesRepresentation: "C=CC(=O)Nc1cc(Nc2ncc(C(=O)OC(C)C)c(Nc3cccc4c3N(S(C)(=O)=O)CCC4)n2)c(OC)cc1N(C)CCN(C)C"
  valueType: "IC50"
  observedResult: 4
- smilesRepresentation: "C=CC(=O)Nc1cc(Nc2nccc(Nc3ccccc3NS(C)(=O)=O)n2)c(OC)cc1N(C)CCN(C)C"
  valueType: "IC50"
  observedResult: 280

1: C=CC(=O)Nc1cc(Nc2ncc(Cl)c(Nc3cccc4c3N(S(C)(=O)=O)CC4)n2)c(OC)cc1N(C)CCN1CCC1
2: C=CC(=O)Nc1cc(Nc2ncc(Cl)c(Nc3ccccc3NS(C)(=O)=O)n2)c(OC)cc1N(C)CCNC(C)C
Which entry shows the lesser value of IC50 here, 1 or 2 ? Answer by quoting the chosen item's label. 1
(1: 1 nM, 2: 27 nM)
